tested_system: PI 3-kinase gamma (Homo sapiens, UniProt P48736)
Sequence (P48736 whole entry): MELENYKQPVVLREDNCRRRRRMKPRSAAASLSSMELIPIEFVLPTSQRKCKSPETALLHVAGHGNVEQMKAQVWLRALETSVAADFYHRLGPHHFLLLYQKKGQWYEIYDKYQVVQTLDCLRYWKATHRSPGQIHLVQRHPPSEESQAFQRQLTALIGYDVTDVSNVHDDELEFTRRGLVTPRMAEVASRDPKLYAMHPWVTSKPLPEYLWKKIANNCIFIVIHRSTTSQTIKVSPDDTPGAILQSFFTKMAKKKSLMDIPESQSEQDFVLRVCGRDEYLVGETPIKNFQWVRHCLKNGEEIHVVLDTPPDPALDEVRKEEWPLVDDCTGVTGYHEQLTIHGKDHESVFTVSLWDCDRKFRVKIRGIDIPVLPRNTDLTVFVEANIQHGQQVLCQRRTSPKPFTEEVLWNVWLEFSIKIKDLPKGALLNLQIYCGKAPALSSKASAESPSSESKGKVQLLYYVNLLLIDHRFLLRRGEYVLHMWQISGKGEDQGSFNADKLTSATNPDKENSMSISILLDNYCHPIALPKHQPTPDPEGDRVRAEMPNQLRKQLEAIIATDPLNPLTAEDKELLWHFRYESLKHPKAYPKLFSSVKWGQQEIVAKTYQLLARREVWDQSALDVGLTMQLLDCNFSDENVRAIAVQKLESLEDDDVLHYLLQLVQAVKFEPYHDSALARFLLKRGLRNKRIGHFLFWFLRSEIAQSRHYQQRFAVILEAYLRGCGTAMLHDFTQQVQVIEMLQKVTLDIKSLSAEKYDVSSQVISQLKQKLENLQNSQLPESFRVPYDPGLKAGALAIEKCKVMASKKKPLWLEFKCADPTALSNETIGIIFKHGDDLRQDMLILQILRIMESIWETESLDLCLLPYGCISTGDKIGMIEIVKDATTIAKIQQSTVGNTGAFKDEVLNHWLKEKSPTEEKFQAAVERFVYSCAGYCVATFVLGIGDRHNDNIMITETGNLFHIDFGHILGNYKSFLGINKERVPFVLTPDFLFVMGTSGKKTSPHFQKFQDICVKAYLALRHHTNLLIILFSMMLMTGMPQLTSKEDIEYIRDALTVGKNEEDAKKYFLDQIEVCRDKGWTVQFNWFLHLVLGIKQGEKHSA
assay_text: Cellular U937 AKT assay K1 (MSD)
Type: cell-based
experimental_conditions: U937 cells, K1 format; read-out: Assay K1 PI3Kγ IC50
reported_metric: IC50 (nM)

>>> value_reported("Cc1cc(-c2nc(-c3cc(S(=O)(=O)NC[C@H]4CCCO4)ccc3C)cnc2N)ccn1")
804
>>> value_reported("CCCn1cc(-c2nc(-c3cc(S(=O)(=O)NCCC(C)(C)O)ccc3C)cnc2N)cn1")
65
>>> value_reported("Cc1cc(-c2nc(-c3cc(S(=O)(=O)N[C@H]4CC[C@@H](O)CC4)ccc3C)cnc2N)ccn1")
203
>>> value_reported("Cc1cc(-c2nc(-c3cc(S(=O)(=O)NCCC(C)(C)O)ccc3C)cnc2N)n(C)n1")
1280
>>> value_reported("Cc1ccc(S(=O)(=O)NCCC(C)(C)O)cc1-c1cnc(N)c(-n2cncn2)n1")
189

[I] Cc1ccc(S(=O)(=O)NCC(C)(C)O)cc1-c1cnc(N)c(-c2nc(C3CC3)no2)n1
[II] Cc1ncc(-c2nc(-c3cc(S(=O)(=O)NCCCO)c(F)cc3C)cnc2N)s1
[III] Cc1ccc(S(=O)(=O)NCCC(C)(C)O)cc1-c1cnc(N)c(-c2cn(C)nc2C)n1
[IV] Cc1ccc(S(=O)(=O)NCC(C)(C)N2CCOCC2)cc1-c1cnc(N)c(-n2cncn2)n1
[V] Cc1cc(-c2nc(-c3cc(S(=O)(=O)NCCC(C)(C)O)ccc3C)cnc2N)ccn1
Order the records, beginning with the lowest IC50 and ending with the highest. Write the labels out in the order the request specifies.
II, III, V, I, IV

[P] Cc1cc(F)c(S(=O)(=O)NCCC(C)(C)O)cc1-c1cnc(N)c(-n2cncn2)n1
[Q] Cc1ccc(S(=O)(=O)NCCC(C)(C)O)cc1-c1cnc(N)c(-c2cnn(C)n2)n1
Compare IC50: is it lower for P or for Q ? // caller expects the label of the chosen entry
Q
(Q: 41 nM, P: 197 nM)

====

tested_system: Vps34 (Homo sapiens, UniProt Q8NEB9)
Sequence (Q8NEB9 whole entry, species assumed): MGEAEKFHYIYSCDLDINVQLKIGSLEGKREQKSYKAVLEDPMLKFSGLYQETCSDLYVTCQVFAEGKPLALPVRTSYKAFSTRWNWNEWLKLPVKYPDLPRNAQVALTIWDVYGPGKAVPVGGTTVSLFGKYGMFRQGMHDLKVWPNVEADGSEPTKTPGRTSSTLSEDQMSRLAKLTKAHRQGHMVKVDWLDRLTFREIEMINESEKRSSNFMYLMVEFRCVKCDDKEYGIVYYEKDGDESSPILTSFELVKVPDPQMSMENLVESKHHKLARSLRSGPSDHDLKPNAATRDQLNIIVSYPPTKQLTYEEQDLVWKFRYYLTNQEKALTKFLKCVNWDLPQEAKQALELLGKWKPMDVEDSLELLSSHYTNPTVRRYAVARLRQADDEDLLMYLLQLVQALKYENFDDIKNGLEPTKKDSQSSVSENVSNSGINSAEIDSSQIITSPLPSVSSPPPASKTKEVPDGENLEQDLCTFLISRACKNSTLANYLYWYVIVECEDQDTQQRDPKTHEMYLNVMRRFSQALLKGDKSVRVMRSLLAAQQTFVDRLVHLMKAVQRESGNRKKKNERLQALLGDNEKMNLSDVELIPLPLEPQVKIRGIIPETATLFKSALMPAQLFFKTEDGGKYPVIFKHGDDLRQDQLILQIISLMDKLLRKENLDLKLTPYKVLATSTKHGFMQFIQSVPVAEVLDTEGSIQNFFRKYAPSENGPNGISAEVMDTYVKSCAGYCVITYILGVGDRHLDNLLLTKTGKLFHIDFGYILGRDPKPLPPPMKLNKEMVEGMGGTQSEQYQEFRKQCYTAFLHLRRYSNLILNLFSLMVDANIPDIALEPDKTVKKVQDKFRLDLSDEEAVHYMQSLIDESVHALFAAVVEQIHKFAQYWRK
assay_text: Kinase Glo Luminescent Kinase Assay (Kglo), assay C
Format: biochemical
experimental_conditions: read-out: Assay C VPS34 IC50
reported_metric: IC50

Example cases with answers are listed next.
>>> value_reported("COC1(C)CN(S(=O)(=O)c2ccc(C)c(-c3cnc(N)c(-c4cn(C)nc4C)n3)c2)C1")
"> 10 µM"
>>> value_reported("Cc1cc(-c2nc(-c3cc(S(=O)(=O)NC4CCC(C)(O)CC4)ccc3C)cnc2N)ccn1 (stereo not shown)")
"> 9.1 µM"
>>> value_reported("Cc1ccc(S(=O)(=O)NCC2(O)COC2)cc1-c1cnc(N)c(-n2cncn2)n1")
"> 10 µM"

For the next question, use this compound.
# IC50 lookup, item "CC[C@H](CO)NS(=O)(=O)c1ccc(C)c(-c2cnc(N)c(-c3ccnc(C)c3)n2)c1"
> 9.1 µM

====

tested_system: PI 3-kinase delta (Homo sapiens)
Sequence (O00329 whole entry): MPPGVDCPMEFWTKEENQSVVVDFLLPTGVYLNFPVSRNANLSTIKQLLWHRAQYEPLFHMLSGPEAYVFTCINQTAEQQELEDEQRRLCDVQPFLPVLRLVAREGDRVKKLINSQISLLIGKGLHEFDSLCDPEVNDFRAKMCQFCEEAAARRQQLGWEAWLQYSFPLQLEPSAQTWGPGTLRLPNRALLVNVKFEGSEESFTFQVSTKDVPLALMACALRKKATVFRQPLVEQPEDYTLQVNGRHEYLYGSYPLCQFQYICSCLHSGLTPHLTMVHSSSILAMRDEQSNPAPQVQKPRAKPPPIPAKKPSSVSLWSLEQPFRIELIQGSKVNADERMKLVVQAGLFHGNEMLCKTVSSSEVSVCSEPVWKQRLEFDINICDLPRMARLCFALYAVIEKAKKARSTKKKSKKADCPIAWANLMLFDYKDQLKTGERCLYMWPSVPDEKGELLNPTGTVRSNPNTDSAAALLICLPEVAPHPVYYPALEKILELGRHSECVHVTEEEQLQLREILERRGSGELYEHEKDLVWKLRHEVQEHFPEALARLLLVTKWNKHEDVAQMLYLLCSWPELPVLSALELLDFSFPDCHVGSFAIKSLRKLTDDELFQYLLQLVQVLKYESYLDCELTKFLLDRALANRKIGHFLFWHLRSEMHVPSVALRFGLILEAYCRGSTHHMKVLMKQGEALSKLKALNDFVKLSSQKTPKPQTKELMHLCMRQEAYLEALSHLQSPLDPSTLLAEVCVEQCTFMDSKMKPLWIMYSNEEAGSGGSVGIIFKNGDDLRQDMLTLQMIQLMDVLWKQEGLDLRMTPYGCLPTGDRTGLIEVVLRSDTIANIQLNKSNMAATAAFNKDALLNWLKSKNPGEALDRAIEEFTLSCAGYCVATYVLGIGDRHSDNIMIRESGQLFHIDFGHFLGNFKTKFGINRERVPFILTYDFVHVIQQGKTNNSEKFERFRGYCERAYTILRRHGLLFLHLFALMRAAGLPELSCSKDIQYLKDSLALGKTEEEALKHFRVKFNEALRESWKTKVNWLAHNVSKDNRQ
Sequence (P27986 461-568 partner): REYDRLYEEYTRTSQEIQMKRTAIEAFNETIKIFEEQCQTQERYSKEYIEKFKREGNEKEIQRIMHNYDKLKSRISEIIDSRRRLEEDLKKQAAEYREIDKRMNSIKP
assay_text: TR-FRET Adapta assay, assay F
experimental_conditions: read-out: Assay F PI3Kδ IC50
Counter-ions that a name gives are not always drawn.
reported_metric: IC50 (nM)

[P] Cc1ccc(S(=O)(=O)NCC2(C)COC2)cc1-c1cnc(N)c(-n2cncn2)n1
[Q] Cc1ccc(S(=O)(=O)N[C@H]2CC[C@H](O)CC2)cc1-c1cnc(N)c(-c2ccnc(F)c2)n1
Compare IC50: is it lower for P or for Q ? // caller expects the label of the chosen entry
Q
(Q: 220 nM, P: 910 nM)

[a] Cc1ccc(S(=O)(=O)N[C@H]2CC[C@H](O)CC2)cc1-c1cnc(N)c(-c2cnn(C)c2)n1
[b] Cc1cc(-c2nc(-c3cc(S(=O)(=O)NC[C@@H](C)O)ccc3C)cnc2N)ccn1 [Example 129, trifluoroacetic acid salt]
Of the two listed items, which has the higher IC50? First: a Second: b // caller expects the label of the chosen entry
b

[P] Cc1ncc(-c2nc(-c3cc(S(=O)(=O)N4CCNC(C(F)(F)F)C4)ccc3C)cnc2N)s1 (stereo not drawn)
[Q] Cc1cc(-c2nc(-c3cc(S(=O)(=O)NC4CCN(C)CC4)ccc3C)cnc2N)ccn1
Of the two listed items, which has the higher IC50? First: P Second: Q // caller expects the label of the chosen entry
Q

[a] Cc1cc(-c2nc(-c3cc(S(=O)(=O)NCC4(C(N)=O)CCOCC4)ccc3C)cnc2N)ccn1
[b] Cc1ncc(-c2nc(-c3cc(S(=O)(=O)NC[C@H]4CCOC4)ccc3C)cnc2N)s1
[c] Cc1ccc(S(=O)(=O)NCCCCCO)cc1-c1cnc(N)c(-n2cncn2)n1
[d] Cc1ccc(S(=O)(=O)N[C@H]2CC[C@H](O)CC2)cc1-c1cnc(N)c(-c2cncnc2)n1
[e] Cc1cc(-c2nc(-c3cc(S(=O)(=O)NC[C@H]4CCC[C@@H](CN)C4)ccc3C)cnc2N)ccn1
List from greatest to least IC50. Write the labels out in the order the request specifies.
c, e, a, d, b
